- System: MOLM14;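 also: after 48 h exposure read by CellTiter-Glo luminescence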
- experiment summary: cell viability relative to vehicle control; higher = less cytotoxic
- measurement parameters: 10 µM; SRSF2 genotype: SRSF2 wt/wt
Counter-ions that a name gives are not always drawn.
value kind: cell viability (%)
I only need the number, in %, no unit after it.

Field: example entries. Status: answers known.
- molecule: "CN1CCC(c2c(O)cc(O)c3c(=O)cc(-c4ccccc4Cl)oc23)C(O)C1 (stereo not drawn) [Flavopiridol (Alvocidib) HCl]"
  recorded number: 0.54
- molecule: "Cc1ncc(CO)c(CO)c1O [Pyridoxine hydrochloride]"
  recorded number: 110
- molecule: "Cc1cc(=O)oc2c(C=O)c(O)ccc12"
  recorded number: 109
- molecule: "Cc1cc(F)c(C(=O)Nc2cccc(-c3nncn3C(C)C)n2)cc1-n1cnc(C2CC2)c1"
  recorded number: 68.5
- molecule: "Cc1ccc(C(=O)N(CCCN)[C@@H](c2nc3cc(Cl)ccc3c(=O)n2Cc2ccccc2)C(C)C)cc1"
  recorded number: 0.34
- molecule: "Oc1ccc(-c2c(-c3ccccc3)nn3c(C(F)(F)F)cc(C(F)(F)F)nc23)cc1"
  recorded number: 86.1

Input line: Query: cell viability; subject: `O=C(NCCCn1ccnc1)c1cc(-c2ccco2)on1`
Output line: 44.4

Input line: Query: cell viability; subject: `CC[C@H]1[C@@H](O)[C@@H]2[C@H](CC[C@]3(C)[C@@H]([C@H](C)CCC(=O)O)CC[C@@H]23)[C@@]2(C)CC[C@@H](O)C[C@@H]12`
Output line: 105

Input line: Query: cell viability; subject: `C=CC(=O)Nc1cccc(Oc2nc(Nc3ccc(N4CCN(C)CC4)cc3)ncc2Cl)c1`
Output line: -0.03

Input line: Query: cell viability; subject: `CC(C)=CCC/C(C)=C\CO`
Output line: 107

Input line: Query: cell viability; subject: CC(C)NC[C@H](O)COc1ccc(CCOCC2CC2)cc1 [Levobetaxolol HCl]
Output line: 91.8

Input line: Query: cell viability; subject: Cc1[nH]cnc1CN1CCc2c(c3ccccc3n2C)C1=O [Alosetron Hydrochloride]
Output line: 100

Input line: Query: cell viability; subject: Cc1cc(C(O)=C2C(=O)C(=O)N(CCCN3CCOCC3)C2c2ccncc2)ccc1OCc1ccccc1 (stereo not drawn)
Output line: 96.5

Input line: Query: cell viability; subject: `C[C@@H](Oc1cc(-c2cnn(C3CCNCC3)c2)cnc1N)c1c(Cl)ccc(F)c1Cl`
Output line: 0.63

Input line: Query: cell viability; subject: `Cc1[nH]c(/C=C2\C(=O)Nc3ccc(S(=O)(=O)Cc4c(Cl)cccc4Cl)cc32)c(C)c1C(=O)N1CCC[C@@H]1CN1CCCC1`
Output line: 46.8

Input line: Query: cell viability; subject: CC1(C)S[C@@H]2[C@H](NC(=O)[C@H](N)c3ccc(O)cc3)C(=O)N2[C@H]1C(=O)O [Amoxicillin (Amoxycillin)]
Output line: 100

Input line: Query: cell viability; subject: `CC(=O)N1C[C@H](O)C[C@H]1C(=O)O`
Output line: 102

Input line: Query: cell viability; subject: `C1CNCCNCCNCCN1`
Output line: 103

Input line: Query: cell viability; subject: COc1nc(C)cnc1NS(=O)(=O)c1cccnc1-c1ccc(-c2nnco2)cc1 [Zibotentan (ZD4054)]
Output line: 97.5

Input line: Query: cell viability; subject: CC1=C(CC(=O)O)c2cc(F)ccc2/C1=C\c1ccc([S+](C)[O-])cc1 (stereo not drawn)
Output line: 100
